System: HCV replicon
experiment: Anti-HCV assay/Replicon assay 2 (luciferase)
Assay type: cell-based
condition: Hepatitis C virus, 72 h, 3 days
What EC50 was measured for each of the following?
Numbers only, in nM.

Reported EC50 for Fc1cccc(-c2nc3ccn(Cc4ccc(OC(F)(F)F)cc4)cc-3n2)c1F : what is it?
20

Hey, quick one: what's EC50 for each of these?
1. Fc1cccc(-c2nc3ccn(Cc4cc(-c5ccc(Cl)cc5)no4)cc-3n2)c1F
2. Fc1ccc(-c2ccc(Cn3ccc4nc(-c5cccc(F)c5F)nc-4c3)cc2)c(F)c1

1: 3.9; 2: 10

Reported EC50 for Fc1ccccc1-c1nc2ccn(Cc3cc(-c4ccc(Cl)cc4)no3)cc-2n1 : what is it?
10

---

experiment: HCV CC50 assay protocol (MTT)
Assay type: cell-based
condition: HCV replicon cells
Experimental: • HCV Replicon Media • DMEM w/High Glucose (or MEM) • 1×Glutamine • 1× Sodium Pyruvate • 10% Heat Inactivated FBS • 1× Antibiotics Cell Culture Preparation • 1. Unthaw frozen stock in 10-12 mls of Media • 2. Allow cells to attach before adding G418 (4-6 hrs) • 3. Add G418 for a final concentration of 200 ug/ml (higher amounts are possible but cells grow slowly) • 4. Split cells 1:4 to 1:6 for optimal growth • 5. […] Read plate at 530 nm in the plate reader. […]
What CC50 at 3 days was measured for each of the following?
One number for each entry, in µM.

Hey, quick one: what's CC50 at 3 days for each of these?
1. Fc1ccc(-c2ccc(Cn3ccc4nc(-c5cccc(F)c5F)nc-4c3)cc2)c(F)c1 [Example 4]
2. Fc1ccccc1-c1nc2ccn(Cc3cc(-c4ccc(Cl)cc4)no3)cc-2n1 [Example 2]
3. Fc1cccc(-c2nc3ccn(Cc4cc(-c5ccc(Cl)cc5)no4)cc-3n2)c1F [Example 5]
4. Fc1cccc(-c2nc3ccn(Cc4ccc(OC(F)(F)F)cc4)cc-3n2)c1F [Example 3A]

1: 19; 2: 26; 3: 10.8; 4: 34

---

Test system: HCV replicon cells
experiment: HCV CC50 assay protocol (MTT)
Type: cell-based
condition: 3 days
readoutLabel: CC50 (µM)
One number for each entry, in µM.

Request body: readout CC50, system HCV replicon cells, query Fc1cccc(-c2nc3ccn(Cc4cc(-c5ccc(Cl)cc5)no4)cc-3n2)c1F . Return the value.
13.4

Cited source: patent US20050222198A1
